# assayed-system: S100A13 (Homo sapiens)
# Sequence (Q99584 1-98): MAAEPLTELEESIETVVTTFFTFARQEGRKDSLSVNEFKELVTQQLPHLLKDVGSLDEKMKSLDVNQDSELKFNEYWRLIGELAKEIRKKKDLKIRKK
# assay-remarks: direct fluorescence polarization (FP), S100A13
# Assay type: binding
# measurement-context: S100A13, 50 nM labeled foldamer, 20 mM HEPES pH 7.5, 150 mM NaCl, 1 mM CaCl2, 0.5 mM TCEP, 0.01% Tween20, quadratic fit, mean ± SEM, three technical repeats, threshold 1 mM
quantity-name: Kd

CC[C@H](C)[C@@H](CC(=O)N[C@H]1CCCC[C@@H]1C(=O)N[C@H]1CCCC[C@@H]1C(=O)N[C@H](CC(=O)N[C@H]1CCCC[C@@H]1C(=O)NCC(=O)N[C@@H](CCCCNC(=O)c1ccc2c(c1)C1(OC2=O)c2ccc(O)cc2Oc2cc(O)ccc21)C(N)=O)Cc1ccccc1)NC(=O)[C@H]1CCCC[C@@H]1N
> 1000 µM
